What screen value was measured for each of the following?
B1: NEK9 peptide 736-751 (Serine/threonine-protein kinase Nek9), 16-mer library wild type / NSP9 (ORF1ab Nsp9, residues 4141-4253) (parent)
chain 1: NSSGLSIGTVFQSSSP
chain 2: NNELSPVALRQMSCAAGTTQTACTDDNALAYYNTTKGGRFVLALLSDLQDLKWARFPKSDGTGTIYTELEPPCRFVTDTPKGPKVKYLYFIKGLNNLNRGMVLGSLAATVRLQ

Variants of: B1
Settings: with NSP9 (ORF1ab Nsp9, residues 4141-4253); bait immobilised on MaxiSorp plates (10 µg), library pre-cleared on GST, 2 h binding at 4 °C, five washes; one round per day, days 1-4; value from days 2 and 3; keep out of graded; scale: average fractional NGS count over selection days 2 and 3
Numbers only.

Sample records with screen value:
residue_codes="chain 1 NSSGLSIGTVFQMSSP" measured_endpoint="screen value" experimental_value=0
residue_codes="chain 1 NSQGLSIGTVFQSSSP" measured_endpoint="screen value" experimental_value=0.000703
residue_codes="chain 1 NSSGLSIGTVFASSSP" measured_endpoint="screen value" experimental_value=1.81e-05
residue_codes="chain 1 NSHGLSIGTVFQSSSP" measured_endpoint="screen value" experimental_value=3.04e-05
residue_codes="chain 1 NGSGLSIGTVFQSSSP" measured_endpoint="screen value" experimental_value=2.56e-05
residue_codes="chain 1 NSSGLSIGTVMQSSSP" measured_endpoint="screen value" experimental_value=0.000187
residue_codes="chain 1 NSSGLVIGTVFQSSSP" measured_endpoint="screen value" experimental_value=0
residue_codes="chain 1 NSSGLSIGSVFQSSSP" measured_endpoint="screen value" experimental_value=0

Count: 3. Required value per item: screen value.
1. chain 1 NSSGLSIGTVFISSSP
2. chain 1 NSWGLSIGTVFQSSSP
3. chain 1 NSSGLSIGTVRQSSSP

OUTPUT:
0
0.000185
0

Count: 8. Required value per item: screen value.
1. chain 1 NSSGLSIGTTFQSSSP
2. chain 1 NSSGLSIGTVFQDSSP
3. chain 1 NSSGLSIGTVFMSSSP
4. chain 1 NSSGLSIGTVFQSSSD
5. chain 1 NSSGLSSGTVFQSSSP
6. chain 1 NSSGLSIGTVFDSSSP
7. chain 1 NSSGLSIGPVFQSSSP
8. chain 1 NSSGVSIGTVFQSSSP

OUTPUT:
[0, 0.000121, "1.76e-05", 0.000477, 0, "3.3e-05", "6.33e-05", "4.92e-05"]

Count: 3. Required value per item: screen value.
1. chain 1 NSMGLSIGTVFQSSSP
2. chain 1 NSSGLQIGTVFQSSSP
3. chain 1 NSSGLSIGTVFQSDSP

OUTPUT:
["5.44e-05", 0, "7.14e-05"]

Data provenance: paper PMC12102759
